Values compiled from the supplement of paper PMC6089552.

tested on: A673/TR/shEF; assay: cell viability (LOESS-normalised, relative to median of negative controls) (log2 ratio); higher = more viable cells (less compound effect), active = hit call of the paper (over 3 MAD below the median); settings: 0.25 µM; library screen: screen1; EWS-FLI1 expression: high (no doxycycline); treatment time: 72 h
The campaign covered roughly 3,200 compounds. About 300 (9.4%) showed activity. The entries come from a sample that favours actives as a whole.
cell viability (log2) class ranges: bottom range (below 0.06), center range (0.06 to below 0.1), top range (0.1 or more)

stdin: Entry "COc1c(C(=O)O)ccc2c1CCC(C)(C)O2" belongs to which category?
stdout: center range

stdin: Looking at "Cc1cccc(-n2ncc3c(N4CCCC4)ncnc32)c1" , which class would you pick?
stdout: center range

stdin: Looking at CC(COc1ccccc1)NC(C)C(O)c1ccc(O)cc1 (stereo not given) , which class would you pick?
stdout: top range

---

tested on: A673/TR/shEF; assay: cell viability (LOESS-normalised, relative to median of negative controls) (log2 ratio); higher = more viable cells (less compound effect), active = hit call of the paper (over 3 MAD below the median); settings: 0.103 µM; library screen: screen3; EWS-FLI1 expression: high (no doxycycline); treatment time: 72 h
About 300 (9.4%) of roughly 3,200 compounds showed activity. The full list was thinned out, with actives kept by preference.
observed property: cell viability (log2)
Note: the reply should be a number with no unit written.

Worked cases, cell viability (log2) given:
COc1cccc2c1C(=O)c1c(O)c3c(c(O)c1C2=O)C[C@@](O)(C(C)=O)C[C@@H]3O[C@H]1C[C@H](N)[C@H](O)[C@H](C)O1; -0.695
CC[C@H](CO)Nc1nc(NCc2ccccc2)c2ncn(C(C)C)c2n1; 0.0283
CN(C)c1ccc(C(=C2C=CC(=[N+](C)C)C=C2)c2ccc(N(C)C)cc2)cc1; 0.0956

stdin: Retrieve cell viability (log2) measured for "CC(=O)O[C@@]12CO[C@@H]1C[C@H](O)[C@@]1(C)C(=O)[C@H](O)C3=C(C)[C@@H](OC(=O)[C@H](O)[C@@H](NC(=O)OC(C)(C)C)c4ccccc4)C[C@@](O)([C@@H](OC(=O)c4ccccc4)[C@H]21)C3(C)C" and print it.
stdout: -2.68

---

system: A673/TR/shEF; assay: cell viability (LOESS-normalised, relative to median of negative controls) (log2 ratio); higher = more viable cells (less compound effect), active = hit call of the paper (over 3 MAD below the median); details: 0.25 µM; library screen: screen2; EWS-FLI1 expression: high (no doxycycline); treatment time: 72 h
About 300 (9.4%) of roughly 3,200 compounds showed activity. The full list was thinned out, with actives kept by preference.
cell viability (log2) listing for selected compounds.
# answer = number (no unit)

O=c1[nH]c(=O)n([C@H]2C[C@H](O)[C@@H](CO)O2)cc1Br; 0.238
Cc1cn([C@H]2C[C@H](N=[N+]=[N-])[C@@H](CO)O2)c(=O)[nH]c1=O; 0.183
Cc1cn([C@H]2C=C[C@@H](CO)O2)c(=O)[nH]c1=O; 0.197

stdin: Output reported cell viability (log2) of the compound "CCc1cn([C@H]2C[C@H](O)[C@@H](CO)O2)c(=O)[nH]c1=O" on A673/TR/shEF.
stdout: 0.0236

stdin: Report the value of cell viability (log2) obtained on A673/TR/shEF for "C[C@H]1O[C@@H](n2cc(F)c(=O)[nH]c2=O)[C@H](O)[C@@H]1O" .
stdout: -0.00269
